- protocol text: Partition coefficient n-octanol/water, modified shake-flask method
- Type: physicochemical
- setup conditions: average of three concentrations
measured attribute: log Po/w
// return a plain number; no unit text

Worked set:
log Po/w in this record for CC(=O)C=C(C)[O-].[Cu+2].[O-][Cl+3]([O-])([O-])[O-].c1cnc2c(c1)c1nccnc1c1cccnc12 [Complex 5, [Cu(acac)(dpq)(ClO4)]] : −0.180

log Po/w in this record for COc1cc(C=CC(=O)C=C([O-])C=Cc2ccc(O)c(OC)c2)ccc1O.[Cu+2].[O-][Cl+3]([O-])([O-])[O-].c1cnc2c(c1)c1nccnc1c1cccnc12 [Complex 2, [Cu(Cur)(dpq)(ClO4)]] : 0.345

log Po/w in this record for COc1cc(/C=C/C(=O)C=C([O-])/C=C/c2ccc(O)c(OC)c2)ccc1O.[Cu+2].[O-][Cl+3]([O-])([O-])[O-].c1cnc2c(c1)ccc1cccnc12 [Complex 1, [Cu(Cur)(phen)(ClO4)]] : −0.525

Others:
log Po/w in this record for COc1cc(/C=C/C(=O)C=C([O-])/C=C/c2ccc(O)c(OC)c2)ccc1O.[Cu+2].[O-][Cl+3]([O-])([O-])[O-].c1ccc2nc3c4cccnc4c4ncccc4c3nc2c1 [Complex 3, [Cu(Cur)(dppz)(ClO4)]] : 0.945

meta.source: paper PMC9606729
